The values you see were collected from ChEMBL document CHEMBL3244252.

Entries annotated with measured Activity
tested on: Salmonella typhimurium; experiment: Mutagenicity in Salmonella typhimurium TA98 assessed as number of revertants by Ames test in presence of microsomal activation; assay type: toxicity, organism-based; conditions: salmonella enterica subsp. enterica serovar typhimurium
Quick reminder: number only, in nmol⁻¹, skip the unit.

query: Entry under review: COc1cccc2c1C(=O)c1c(O)c3c(c(O)c1C2=O)C[C@@](O)(C(C)O)C[C@@H]3O[C@H]1C[C@H](N(Cc2ccccc2)Cc2ccccc2)[C@H](O)[C@H](C)O1.Cl (some centres undefined) . Reported Activity?
result: 0.5

query: Next up: COc1cccc2c1C(=O)c1c(O)c3c(c(O)c1C2=O)C[C@@](O)(C(=O)CO)C[C@@H]3O[C@H]1C[C@H](N(C)C)[C@H](O)[C@H](C)O1.Cl
result: 1

query: Continue with COc1cccc2c1C(=O)c1c(O)c3c(c(O)c1C2=O)C[C@@](O)(C(=O)CO)C[C@@H]3O[C@H]1C[C@H](N2CCCCC2)[C@H](O)[C@H](C)O1.Cl
result: 1

query: Proceed to COc1cccc2c1C(=O)c1c(O)c3c(c(O)c1C2=O)C[C@@](O)(C(C)=O)C[C@@H]3O[C@H]1C[C@H](N)[C@H](O)[C@H](C)O1
result: 100

---

test system: L1210; experiment: Inhibition of RNA synthesis in mouse L1210 cells; assay type: functional; settings: read-out: ED50 (the source's name)
measurement-name: pEC50
Please report pEC50 as the negative decimal logarithm of the molar concentration, giving only the number.

compound	pEC50
COc1cccc2c1C(=O)c1c(O)c3c(c(O)c1C2=O)C[C@@](O)(C(=O)CO)C[C@@H]3O[C@H]1C[C@H](N2CCCCC2)[C@H](O)[C@H](C)O1.Cl	7.40

query: Could you tell me which pEC50 is on file for COc1cccc2c1C(=O)c1c(O)c3c(c(O)c1C2=O)C[C@@](O)(C(C)O)C[C@@H]3O[C@H]1C[C@H](NCc2ccccc2)[C@H](O)[C@H](C)O1.Cl (stereo partly drawn) ?
result: 6.49

query: Would you mind doing COc1cccc2c1C(=O)c1c(O)c3c(c(O)c1C2=O)C[C@@](O)(C(C)O)C[C@@H]3O[C@H]1C[C@H](N(Cc2ccccc2)Cc2ccccc2)[C@H](O)[C@H](C)O1.Cl (stereo partly drawn) as well?
result: 5.12
